# SYSTEM_NAME: T1, PCSK9-D374Y-BP15-His6 (human, UniProt Q8NBP7 31-692, biotin on the BP15 biotin receiving peptide)
# T1 construct: also called PCSK9-Y; mutant PCSK9
# TEST_NAME: blocking ELISA, LDLR-FC (SEQ ID NO: 8) coated, bio-PCSK9-Y plus antibody
Recorded measurements of IC50, one per entry
Value expressed in mg/L; do not type the unit.

Prompt line: Input h001-3 (antibody, human IgG1, V domains shown, Variable regions only; also called h001_VH.1 + h001_VL.1B) VH: QVQLVQSGAEVKKPGASVKVSCKASGYTFTDYWMHWVRQAPGQGLEWMGYINPSSGFTKYHQNFKDRVTMTRDTSISTAYMELSRLRSDDTAVYYCARQYDYDEDWYFDVWGQGTTVTVSS VL: DIQMSQSPSSLSASVGDRVTITCKSSQSLLNSRTRKNFLAWYQQKPGKAPKLLIYWASTRESGVPDRFSGSGSGTDFTLTISSLQPEDFATYYCKQSFNLFTFGQGTKLEIK , output reported IC50.
Response line: 0.475

Prompt line: Input h001-5 (antibody, human IgG1, V domains shown, Variable regions only; also called h001_VH.1A + h001_VL.1) VH: QVQLVQSGAEVKKPGASVKVSCKASGYTFNDYWMHWVRQAPGQGLEWMGYINPSSGFTKYHQNFKDRVTMTRDTSISTAYMELSRLRSDDTAVYYCARQYDYDEDWYFDVWGQGTTVTVSS VL: DIQMTQSPSSLSASVGDRVTITCKSSQSLLNSRTRKNFLAWYQQKPGKAPKLLIYWASTRESGVPSRFSGSGSGTDFTLTISSLQPEDFATYYCKQSFNLFTFGQGTKLEIK , output reported IC50.
Response line: 0.468

Prompt line: Input h001-2 (antibody, human IgG1, V domains shown, Variable regions only; also called h001_VH.1 + h001_VL.1A) VH: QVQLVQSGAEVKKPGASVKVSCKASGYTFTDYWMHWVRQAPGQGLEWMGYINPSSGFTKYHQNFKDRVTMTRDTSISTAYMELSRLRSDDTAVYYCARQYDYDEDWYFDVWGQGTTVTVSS VL: DIQMTQSPSSLSASVGDRVTITCKSSQSLLNSRTRKNFLAWYQQKPGKAPKLLIYWASTRESGVPDRFSGSGSGTDFTLTISSLQPEDFATYYCKQSFNLFTFGQGTKLEIK , output reported IC50.
Response line: 0.455

Prompt line: Input Ch-001 (antibody, V domains shown, also called chimeric antibody) VH: QVHLQQSGAELAKPGASVKLSCKASGYTFNDYWMHWVKERPGQGLEWIGYINPSSGFTKYHQNFKDKATLTADKSSSTAYMQLSSLTYDDSAVYYCARQYDYDEDWYFDVWGTGTTVTVSS VL: DIVMSQSPSSLAVSAGEKVTMSCKSSQSLLNSRTRKNFLAWYQQKPGQSPKLLIYWASTRESGVPDRFTGRGSGTDFTLTISSVQAEDLAVYYCKQSFNLFTFGSGTKLEIK , output reported IC50.
Response line: 0.392

Prompt line: Input h001-9 (antibody, human IgG1, V domains shown, Variable regions only; also called h001_VH.1B + h001_VL.1) VH: QVQLVQSGAEVKKPGASVKVSCKASGYTFTDYWMHWVRQAPGQGLEWMGYINPSSGFTKYHQNFKDRVTMTRDTSISTAYMELSRLTSDDTAVYYCARQYDYDEDWYFDVWGQGTTVTVSS VL: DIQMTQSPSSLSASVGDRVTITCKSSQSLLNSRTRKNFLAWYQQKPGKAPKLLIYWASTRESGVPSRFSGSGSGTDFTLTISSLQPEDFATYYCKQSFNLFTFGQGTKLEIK , output reported IC50.
Response line: 0.52
